The reported measurements were obtained from the METLIN SMRT retention time set (Domingo-Almenara et al. 2019).

# Assay details: gradient 5% acetonitrile 3 min, to 50% in 2 min, to 85% in 15 min, held 3 min, 100 µL/min
# Cond: column: Zorbax Extend-C18 2.1 x 50 mm; eluents: water / acetonitrile, 0.1% formic acid
Measurement label: RP-LC retention time (s)

COc1ccc(NC(=O)c2cn(-c3cc(N4CCCC4)ncn3)cn2)cc1OC: 748
CCOCC(=O)N1CCc2c(c(C(=O)N3CCCC(C(=O)Nc4ccccc4)C3)nn2C)C1 (stereo not given): 668
Cn1c(=O)c(N2CCCC(C(=O)NCc3ccco3)C2)nc2cccnc21 (stereo not given): 788
Cc1ccccc1C(=O)Nc1nnc(SCc2nnc(-c3ccccc3)o2)s1: 917
Cc1cc(C)n2ncc(-c3ccc(C)c(S(=O)(=O)NCc4ccc(F)cc4Cl)c3)c2n1: 1080
Cc1ccccc1NC(=O)C(C)n1nc(C)c2nn(-c3ccccc3)c(-n3cccc3)c2c1=O (stereo not given): 1090
O=C(NCCn1c(CCc2ccccc2)nc2ccccc21)NCc1ccco1: 656
CN1C(=O)[C@H]2CN(Cc3cn[nH]c3-c3ccc(F)cc3)C[C@H]2C1=O: 575
O=C(CCn1ccc2cc(S(=O)(=O)N3CCCCC3)ccc21)N1CCN(c2ccccn2)CC1: 680
CCc1cnc2c(c1SCC(=O)N(CC)CC)c(=O)n(C)c(=O)n2C: 786

----------
Reported RP-LC retention time values for the following molecules.
# Assay details: gradient 5% acetonitrile 3 min, to 50% in 2 min, to 85% in 15 min, held 3 min, 100 µL/min
# Cond: column: Zorbax Extend-C18 2.1 x 50 mm; eluents: water / acetonitrile, 0.1% formic acid
Measurement label: RP-LC retention time (s)

CSc1cccc(NC(=O)Cn2c(=O)cc(-c3nc(C(C)C)no3)c3ccccc32)c1: 928
CS(=O)(=O)Nc1ccc2oc3c(OC(F)F)ccc(C(=O)Nc4c(Cl)cncc4Cl)c3c2c1: 967
CCOc1ccccc1NC(=O)C1CCN(S(C)(=O)=O)c2cc(Cl)ccc2O1 (centres undefined): 910
Cc1ccc(NC(=O)Cn2nc3c(Oc4ccccc4C)nccn3c2=O)cc1F: 825

----------
# Assay details: gradient 5% acetonitrile 3 min, to 50% in 2 min, to 85% in 15 min, held 3 min, 100 µL/min
# Cond: column: Zorbax Extend-C18 2.1 x 50 mm; eluents: water / acetonitrile, 0.1% formic acid
Measurement label: RP-LC retention time (s)

Cc1cc(C)cc(-n2ccn3c(CCC(=O)NCCc4c[nH]c5ccccc45)nnc3c2=O)c1: 744
CC1=C(c2ccc(C)c(C)c2)S(=O)(=O)N=C1N1CCCN(C(=O)NC(C)(C)C)CC1: 888
Cc1noc(-c2cc(=O)n(CC(=O)NCc3ccccc3)c3ccccc23)n1: 812

----------
# Assay details: gradient 5% acetonitrile 3 min, to 50% in 2 min, to 85% in 15 min, held 3 min, 100 µL/min
# Cond: column: Zorbax Extend-C18 2.1 x 50 mm; eluents: water / acetonitrile, 0.1% formic acid
Label not met if RP-LC retention time falls below 700 s; label met in every other case.

O=C(Nc1cnc(N2CCOCC2)nc1)c1cc(F)ccc1Cl: met
CCc1noc(-c2cnc3nc(C)ccc3c2NCc2ccccc2OC)n1: met
Cc1ccn2cc(-c3ccc(C)c(NS(=O)(=O)c4cc(C)c(C)cc4C)c3)nc2c1: met
CN(C)CC1CN(C(=O)c2ccc3c(c2)OCO3)CC12CCOCC2 (stereo unspecified): not met
N=C(N)SCCc1ccc(OCc2ccc([N+](=O)[O-])cc2)cc1: met
O=C(Nc1ccc(F)cc1)c1nnc(CSCC(=O)N2CCN(c3ccccn3)CC2)s1: not met
O=C(CS(=O)(=O)Cc1ccccc1)Nc1nc(-c2ccccc2)cs1: met
Cc1noc(C)c1CCC(=O)N1CCCCC1c1nncn1CC1CC1 (stereo unspecified): not met
CCc1noc(NC(C)=O)c1-c1ccc(C)c(S(=O)(=O)NCc2ccc(OC)cc2)c1: met
Cc1c(S(=O)(=O)CCNC(=O)Nc2ccc3c(c2)OCO3)c2ccccc2n1C: met
COc1ccc2c(c1)C1(CCN(S(=O)(=O)c3ccc(F)c(C)c3)C1)C(=O)N2C (stereo unspecified): met
O=c1ccc(-c2ccccc2)nn1CCc1nc(-c2ccccc2Br)no1: met
Cc1sc(-c2nc(C(C)C)cs2)cc1S(=O)(=O)NCc1ccc2c(c1)OCO2: met
O=C(CSC1CCc2ccccc2NC1=O)Nc1cccc(Br)c1 (stereo unspecified): met
COC(=O)C1=CN(c2cccc(OC)c2)c2cc(F)ccc2S1(=O)=O: met
CCc1ccc(C(=O)Nc2cnn(CC)c(=O)c2N2CCOCC2)cc1: met
CCc1ccc(CNC(=O)C2CCN(c3ncnc4c3oc3ccccc34)CC2)cc1: met
CCc1noc(-c2ccc(-n3ncc(C(=O)N4CCC(C)CC4)c3C)nc2)n1: met
COC(=O)c1c(C)[nH]c(C(=O)N2CCC(CC(=O)NC3CCCCC3)CC2)c1C: met
CC1CCN(C(=O)Cn2c(=O)c3cccn3c3ccc(F)cc32)CC1: met
